# assay_system: human P2X3 receptor (Homo sapiens (Human), UniProt P56373)
# Sequence (P56373 whole entry): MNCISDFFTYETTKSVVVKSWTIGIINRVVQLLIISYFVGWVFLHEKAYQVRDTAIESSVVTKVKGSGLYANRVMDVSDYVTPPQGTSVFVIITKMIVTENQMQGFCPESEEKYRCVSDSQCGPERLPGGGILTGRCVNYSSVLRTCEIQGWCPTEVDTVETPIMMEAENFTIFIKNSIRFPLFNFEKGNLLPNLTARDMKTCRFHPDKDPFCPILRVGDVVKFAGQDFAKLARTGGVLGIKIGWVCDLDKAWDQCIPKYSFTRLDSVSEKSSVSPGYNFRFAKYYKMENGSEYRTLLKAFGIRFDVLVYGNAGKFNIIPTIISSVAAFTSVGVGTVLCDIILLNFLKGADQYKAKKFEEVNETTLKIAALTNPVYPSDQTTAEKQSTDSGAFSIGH
# test_details: Evaluation of human P2X3 receptor inhibitory activity (Test Example 1)
# experimental_context: C6BU-1 cell transfected with human P2X3 receptor gene, FLIPR 384
Hi there, I'd appreciate the recorded pIC50 for every entry that follows.
FYI, pIC50 means -log10 of a concentration in mol per litre.

Ask: Give the measured pIC50 of Cc1ccc(Cn2c(=O)n(C[C@H](C)C(=O)O)c(=O)[nH]/c2=N\c2ccc(Oc3ccccn3)c(F)c2)cc1 .
Result: 8.15

Ask: Give the measured pIC50 of COC(=O)CCn1c(=O)[nH]/c(=N\c2ccc(Oc3ccccn3)c(F)c2)n(Cc2ccc(C)cc2)c1=O .
Result: 8.40

Ask: Give the measured pIC50 of Cc1ccc(Cn2c(=O)n([C@H]3C[C@H](C(=O)O)C3)c(=O)[nH]/c2=N\c2ccc(Oc3ccccn3)cc2)cc1 .
Result: 8.22

Ask: Give the measured pIC50 of O=C(O)CCn1c(=O)[nH]/c(=N\c2ccc(Oc3ccccn3)c(Cl)c2)n(Cc2ccc(Cl)cc2)c1=O .
Result: 8.10

Ask: Give the measured pIC50 of CCc1[nH]c2ccc(/N=c3\[nH]c(=O)n(CC(C)(C)C(=O)OC)c(=O)n3Cc3ccc(Cl)cc3)cc2c1C .
Result: 7.29

Ask: Give the measured pIC50 of C[C@@H](C(=O)O)[C@H](C)n1c(=O)[nH]/c(=N\c2ccc(Oc3cnccn3)cc2)n(Cc2ccc(Cl)cc2)c1=O .
Result: 7.77

Ask: Give the measured pIC50 of Cc1ccc(Cn2c(=O)n(C[C@H](C)C(=O)O)c(=O)[nH]/c2=N\c2ccc(Oc3ccc(Cl)cn3)cc2)cc1 .
Result: 8.40

Ask: Give the measured pIC50 of COC(=O)C(C)(C)Cn1c(=O)[nH]/c(=N\c2ccc(Oc3ncccc3C#N)cc2)n(Cc2ccc(Cl)cc2)c1=O .
Result: 7.72

Ask: Give the measured pIC50 of Cc1ccc(Cn2c(=O)n(C[C@@H](C)C(=O)O)c(=O)[nH]/c2=N\c2ccc(Oc3ccccn3)cc2)cc1 .
Result: 8.05

Ask: Give the measured pIC50 of COC(=O)[C@@H](C)Cn1c(=O)[nH]/c(=N\c2ccc(Oc3ccnc(F)c3)cc2)n(Cc2ccc(C)cc2)c1=O .
Result: 8.30

Ask: Give the measured pIC50 of COC(=O)[C@@H](C)Cn1c(=O)[nH]/c(=N\c2ccc(Oc3cncc(OC)c3)cc2)n(Cc2ccc(Cl)cc2)c1=O .
Result: 8.15

Ask: Give the measured pIC50 of C[C@@H](Cn1c(=O)[nH]/c(=N\c2ccc(Oc3cccc(Cl)n3)cc2)n(Cc2ccc(Cl)cc2)c1=O)C(=O)O .
Result: 8.15

Ask: Give the measured pIC50 of Cc1cc(/N=c2\[nH]c(=O)n([C@@H](C)[C@@H](C)C(=O)O)c(=O)n2Cc2ccc(Cl)cc2)ccc1Oc1cnccn1 .
Result: 8.00

* * *

# assay_system: human P2X3 receptor (Homo sapiens (Human), UniProt P56373)
# test_details: Evaluation of human P2X3 receptor inhibitory activity (Test Example 1)
# experimental_context: C6BU-1 cell transfected with human P2X3 receptor gene, FLIPR 384
Hi there, I'd appreciate the recorded IC50 for every entry that follows.
Could you write the number and then its unit?

Ask: Give the measured IC50 of COC(=O)C(C)(C)Cn1c(=O)[nH]/c(=N\c2ccc(Oc3cc(F)nc(F)c3)cc2)n(Cc2ccc(Cl)cc2)c1=O .
Result: 11 nM

Ask: Give the measured IC50 of COC(=O)CCn1c(=O)[nH]/c(=N\c2ccc(Oc3ccc(C(C)=O)cn3)cc2)n(Cc2ccc(Cl)cc2)c1=O .
Result: 3 nM

Ask: Give the measured IC50 of C[C@@H](Cn1c(=O)[nH]/c(=N\c2ccc(Oc3ccc(CF)cn3)cc2)n(Cc2ccc(Cl)cc2)c1=O)C(=O)O .
Result: 5 nM

Ask: Give the measured IC50 of C[C@@H](Cn1c(=O)[nH]/c(=N\c2ccc(Oc3ncccc3F)cc2)n(Cc2ccc(F)cc2F)c1=O)C(=O)O .
Result: 39 nM

Ask: Give the measured IC50 of CCOC(=O)C1(Cn2c(=O)[nH]/c(=N\c3ccc(Oc4ncccc4F)cc3)n(Cc3ccc(Cl)cc3)c2=O)CC1 .
Result: 15 nM

Ask: Give the measured IC50 of COC(=O)[C@@H](C)Cn1c(=O)[nH]/c(=N\c2ccc(Oc3ccnc(C)n3)cc2)n(Cc2ccc(Cl)cc2)c1=O .
Result: 5 nM

Ask: Give the measured IC50 of NC(=O)CCn1c(=O)[nH]/c(=N\c2ccc(Oc3ccccn3)cc2)n(Cc2ccc(Cl)cc2)c1=O .
Result: 7 nM

Ask: Give the measured IC50 of Cn1c(=O)[nH]/c(=N\c2ccc(Oc3cccc(C(=O)Nc4ccc(C(=O)O)cc4)n3)cc2)n(C[C@H]2CC[C@H](C)CC2)c1=O .
Result: 4 nM

Ask: Give the measured IC50 of CC(C)(Cn1c(=O)[nH]/c(=N\c2ccc(Oc3cncc(Cl)c3)cc2)n(Cc2ccc(Cl)cc2)c1=O)C(=O)O .
Result: 7 nM

Ask: Give the measured IC50 of Cc1cccnc1Oc1ccc(/N=c2\[nH]c(=O)n(C[C@H](C)C(=O)O)c(=O)n2Cc2ccc(Cl)cc2)cc1 .
Result: 10 nM

Ask: Give the measured IC50 of C[C@@H](Cn1c(=O)[nH]/c(=N\c2ccc(Oc3cnccn3)c(F)c2)n(Cc2ccc(Cl)cc2)c1=O)C(=O)O .
Result: 7 nM

Ask: Give the measured IC50 of C[C@@H](C(=O)O)[C@H](C)n1c(=O)[nH]/c(=N\c2ccc(Oc3cc(C#N)ccn3)cc2)n(Cc2ccc(Cl)cc2)c1=O .
Result: 7 nM

Ask: Give the measured IC50 of COC(=O)C(C)(C)Cn1c(=O)[nH]/c(=N\c2ccc(Oc3cc(Cl)ncn3)cc2)n(Cc2ccc(Cl)cc2)c1=O .
Result: 9 nM
